Data credit: patent US9682938B2

- Test: In vitro plasma stability, human plasma
- Assay type: in vitro ADME
- Study Conditions: male, pH 7.4, 5 μM, 37° C., sampling 0-360 minutes, read-out: T1/2 Human
Measured Quantity: half-life at 5 μM (min)

> print(dat)
                                   compound  meas.value
1  COc1cc(C2=NN(C)C(=O)C2(C)NO)ccc1S(C)(=O)=O (stereo not drawn)          40
2  CN1N=C(c2ccccc2[S+](C)[O-])C(C)(NO)C1=O (stereo not drawn)          41
3  CN1N=C(c2ccc(S(C)(=O)=O)c(F)c2)C(C)(NO)C1=O (stereo not drawn)          39
